- Measured Target: NADPH oxidase 2 (Homo sapiens)
- Sequence (P04839 whole entry): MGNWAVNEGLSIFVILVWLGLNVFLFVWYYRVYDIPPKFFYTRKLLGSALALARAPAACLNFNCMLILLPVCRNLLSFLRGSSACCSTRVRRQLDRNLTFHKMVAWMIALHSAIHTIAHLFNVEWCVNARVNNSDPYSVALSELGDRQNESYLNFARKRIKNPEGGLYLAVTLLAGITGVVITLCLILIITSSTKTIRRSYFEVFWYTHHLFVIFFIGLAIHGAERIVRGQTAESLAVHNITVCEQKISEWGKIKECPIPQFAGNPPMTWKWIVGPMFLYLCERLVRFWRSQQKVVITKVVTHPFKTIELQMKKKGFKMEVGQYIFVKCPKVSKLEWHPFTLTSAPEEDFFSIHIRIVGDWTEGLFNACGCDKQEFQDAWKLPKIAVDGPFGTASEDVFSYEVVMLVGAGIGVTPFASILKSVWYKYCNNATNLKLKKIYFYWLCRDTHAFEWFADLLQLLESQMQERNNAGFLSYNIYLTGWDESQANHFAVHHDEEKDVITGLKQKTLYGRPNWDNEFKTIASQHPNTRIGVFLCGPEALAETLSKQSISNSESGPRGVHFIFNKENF
- Assay Comment: Antagonist activity at human NOX2 in human polymorphonuclear cell membrane assessed as inhibition of ROS production after 20 mins by cell-free amplex red assay
pKi: −log10 of the molar value.
Observed Property: pKi

> print(dat)
                               entry.smiles  reading
1  O=c1c2c3n(c(=O)cc2[nH]n1-c1ccccc1Cl)CCCNC3     6.44

(A) COc1ccccc1-n1[nH]c2cc(=O)n3c(c2c1=O)CN(Cc1ccccc1)CCC3
(B) CC(C)(C)OC(=O)N1CCCn2c(c3c(=O)n(-c4ccccc4Cl)[nH]c3cc2=O)C1
// compare measured pKi, left A , right B , return larger Please reply using the label of the selected record.
A
(A: 6.19, B: 5.89)

====

- Assay Comment: Clearance in human liver microsomes assessed per mg of protein at 0.5 uM
- Format: ADME, Microsome
- Run Parameters: read-out: CLH
Observed Property: microsomal CLint at 0.5 µM (µL/min/mg)

Consider the reported microsomal CLint at 0.5 µM for these compounds:
> print(dat)
                               entry.smiles  readout.unit  reading
1  O=c1c2c3n(c(=O)cc2[nH]n1-c1ccccc1Cl)CCCN(Cc1cccc(Cl)c1)C3     µL/min/mg     81.4
2  O=c1c2c3n(c(=O)cc2[nH]n1-c1ccccc1Cl)CCCN(Cc1ccc(Cl)cc1)C3     µL/min/mg     77.3
3  COc1cccc(CN2CCCn3c(c4c(=O)n(-c5ccccc5Cl)[nH]c4cc3=O)C2)c1.Cl     µL/min/mg       35

(A) Cl.O=c1c2c3n(c(=O)cc2[nH]n1-c1ccccc1Cl)CCCN(Cc1ccccn1)C3
(B) O=c1c2c3n(c(=O)cc2[nH]n1-c1ccccc1Cl)CCCN(Cc1ccccc1Cl)C3
(C) Cl.O=c1c2c3n(c(=O)cc2[nH]n1-c1ccccc1Cl)CCCN(Cc1ccccc1)C3
(D) Cl.O=c1c2c3n(c(=O)cc2[nH]n1-c1ccccc1Cl)CCCN(Cc1cccnc1)C3
Give the ascending ranking of the items by reported microsomal CLint at 0.5 µM. Output the labels ranked as instructed.
A, D, C, B

====

- Assay Comment: Cmax in Sprague-Dawley rat at 5 mg/kg, iv
- Assay type: ADME, organism-based
- Design: dose 5 mg/kg, route intravenous
- Run Parameters: in vivo
Observed Property: Cmax (ng/mL)

(a) Cl.O=c1c2c3n(c(=O)cc2[nH]n1-c1ccccc1Cl)CCCN(Cc1ccccc1)C3
(b) Cl.O=c1c2c3n(c(=O)cc2[nH]n1-c1ccccc1Cl)CCCN(Cc1ccccn1)C3
Identify the entry with the smaller Cmax: a or b . Field: selected label. Fill in the label of the entry you choose.
b
(b: 21800 ng/mL, a: 42300 ng/mL)

====

- Assay Comment: Half life in Sprague-Dawley rat at 10 mg/kg, po
- Type: ADME, organism-based
- Parameters: dose 10 mg/kg, route oral
- Run Parameters: in vivo
Observed Property: half-life (min)

(1) Cl.O=c1c2c3n(c(=O)cc2[nH]n1-c1ccccc1Cl)CCCN(Cc1ccccn1)C3
(2) Cl.O=c1c2c3n(c(=O)cc2[nH]n1-c1ccccc1Cl)CCCN(Cc1ccccc1)C3
Two entries are listed, 1 and 2 . Which one carries the higher half-life? Please reply using the label of the selected record.
1
(1: 218 min, 2: 142 min)

Ref: ChEMBL document CHEMBL1926564
